Values compiled from PubChem BioAssay (NCI).

- Test system: RPMI-8226 leukemia
- METHOD: NCI tumour cell line growth inhibition, 48 h
# key: entry, value: TGI
Response body: numeric value in µM, unit text excluded.

So what does the record say about TGI for Cc1ccc(C)c(NC(=O)C(=O)C(c2cnc3ccc([N+](=O)[O-])cc3n2)[N+](=O)[O-])c1 (stereo not given) ? 39.4

So what does the record say about TGI for C=CC1(C)CCC(C(C)C(=O)C(C=C(C)C)OC(C)=O)C12C(=O)Oc1ccccc1C2=O (stereo not given) ? 68.2

So what does the record say about TGI for C=C1C(=O)O[C@@H]2[C@H]3O[C@]3(C)CCC=C(C)CC[C@@H]12 ? 77.2

So what does the record say about TGI for O=C(Nc1ccc(-c2nc3cc4ccccc4cc3[nH]2)cc1)c1cccc(Br)c1 ? 56.8

So what does the record say about TGI for COc1ccc(C(=O)Cn2c(C(=O)c3ccc(OC)cc3)nc3ccccc32)cc1 ? 8.28
